# Procedure details: Reduction of COL1A1 mRNA expression in healthy human ISEMF at 1 uM by RT-PCR analysis
# Assay type: functional
Active and inactive are the calls of the source. The rule behind the calls is not given here.
Readout: Activity

# Activity (compound: `O=C(Cn1cnc2cc3c(cc2c1=O)OCCO3)c1cccc(Br)c1` ) is Active

Lab note: `O=c1c2cc3c(cc2ncn1Cc1ccc(-c2ccccc2)cc1)OCCO3` gave Activity of Active

###

Please go through the items and note down their inhibition.
# Assay target: Serine/threonine-protein kinase mTOR (Homo sapiens) (UniProt P42345)
# Procedure details: Inhibition of human mTOR using PHAS-1 as substrate at 1 uM measured after 20 mins at 30 degC by liquid scintillation counting method in presence of [gamma-32P]-ATP
One number for each entry, in %.

Looking up COc1cc2ncn(CC(O)c3ccc(Br)cc3)c(=O)c2cc1OC (stereo not given) , I see its inhibition listed as 33

Input `O=c1c2cc3c(cc2ncn1Cc1ccc(-c2ccccc2)cc1)OCO3` . Output inhibition: 10

Recorded result, `O=c1c2cc3c(cc2ncn1Cc1ccc(Br)cc1)OCCO3` , inhibition: 13

Your task in this section: give inhibition for each listed record.
1. COc1cc2ncn(Cc3cccnc3Br)c(=O)c2cc1OC
2. COc1cc2ncn(Cc3cccc(-c4ccccc4)c3)c(=O)c2cc1OC

30
34

Hey, just so you know, these numbers are from ChEMBL document CHEMBL3792341.
